- target.or.system: human PD-L1/His fusion protein (human, UniProt Q9NZQ7 19-239)
- Sequence (Q9NZQ7 19-239 limits assumed): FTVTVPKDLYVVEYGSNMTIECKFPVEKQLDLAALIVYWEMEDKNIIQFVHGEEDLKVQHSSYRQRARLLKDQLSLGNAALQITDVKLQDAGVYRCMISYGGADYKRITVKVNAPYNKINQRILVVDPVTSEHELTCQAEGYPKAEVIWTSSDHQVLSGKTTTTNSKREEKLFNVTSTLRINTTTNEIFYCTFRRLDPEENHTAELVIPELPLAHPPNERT
- assay.remarks: BLI off-rate; test group 1
observed.property: Off-Rate Ratio to that of EM0005-90c (%)
Return type: number; implicit unit %.

Below, 3 binders whose answers are already recorded.
binder: HuEM0005-90-3 (antibody, human IgG1, V domains shown) VH: EVQLVQSGAEVKKPGASVKVSCKTSGYTFTSHSINWVRQATGQGLEWMGYMYIGNGYTEYNEKFKGRVTMTSNTSISTAYMELSSLRSEDTAVYYCAKITPVVAPYVMDYWGQGTSVTVSS VL: DIQLTQSPSFLSASVGDRVTITCKASQDVGTAVAWYQQKPGKAPKLLIYWASTRHTGVPSRFSGSGSGTEFTLTISSLQPEDFATYYCQQYSSYPYTFGQGTKLEIK
Off-Rate Ratio to that of EM0005-90c, %: 120
//
binder: HuEM0005-90-6 (antibody, human IgG1, V domains shown) VH: EVQLVQSGAEVKKPGASVKVSCKASGYTFTSHSINWVRQATGQGLEWIGYMYIGNGYTEYNEKFKGRATLTSNTSISTAYMELSSLRSEDTAVYYCAKITPVVAPYVMDYWGQGTSVTVSS VL: DIQMTQSPSFLSASVGDRVTITCKASQDVGTAVAWYQQKPGKAPKLLIYWASTRHTGVPSRFSGSGSGTEFTLTISSLQPEDFATYYCQQYSSYPYTFGQGTKLEIK
Off-Rate Ratio to that of EM0005-90c, %: 100
//
binder: HuEM0005-90-5 (antibody, human IgG1, V domains shown) VH: EVQLVQSGAEVKKPGASVKVSCKASGYTFTSHSINWVRQATGQGLEWMGYMYIGNGYTEYNEKFKGRVTLTSNTSISTAYMELSSLRSEDTAVYYCAKITPVVAPYVMDYWGQGTSVTVSS VL: DIQMTQSPSFLSASVGDRVTITCKASQDVGTAVAWYQQKPGKAPKLLIYWASTRHTGVPSRFSGSGSGTEFTLTISSLQPEDFATYYCQQYSSYPYTFGQGTKLEIK
Off-Rate Ratio to that of EM0005-90c, %: 107

Next binder, Off-Rate Ratio to that of EM0005-90c to be filled in.
Task: Give Off-Rate Ratio to that of EM0005-90c for the following binder: HuEM0005-90-2 (antibody, human IgG1, V domains shown) VH: EVQLVQSGAEVKKPGASVKVSCKASGYTFTSHSINWVRQATGQGLEWIGYMYIGNGYTEYNEKFKGRATLTSNTSISTAYMELSSLRSEDTAVYYCAKITPVVAPYVMDYWGQGTSVTVSS VL: DIQLTQSPSFLSASVGDRVTITCKASQDVGTAVAWYQQKPGKAPKLLIYWASTRHTGVPSRFSGSGSGTEFTLTISSLQPEDFATYYCQQYSSYPYTFGQGTKLEIK
Result: 90
